# target_under_test: NUDT2 (Homo sapiens, UniProt P50583)
# Sequence (P50583 whole entry): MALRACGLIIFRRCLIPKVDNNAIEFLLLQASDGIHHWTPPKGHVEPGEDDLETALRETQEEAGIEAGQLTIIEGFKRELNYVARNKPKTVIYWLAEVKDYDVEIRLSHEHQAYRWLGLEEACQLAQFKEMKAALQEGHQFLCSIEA
experimental_endpoint: IC50
# include the unit after the value

Short answer please: IC50, NUDT2 (Homo sapiens, UniProt P50583), entry COC(=O)NC(=NC(=O)OCC1c2ccccc2-c2ccccc21)n1cccn1
2000 nM

---

# target_under_test: K155 of SIN3A (Homo sapiens)
# Sequence (Q96ST3 1-400): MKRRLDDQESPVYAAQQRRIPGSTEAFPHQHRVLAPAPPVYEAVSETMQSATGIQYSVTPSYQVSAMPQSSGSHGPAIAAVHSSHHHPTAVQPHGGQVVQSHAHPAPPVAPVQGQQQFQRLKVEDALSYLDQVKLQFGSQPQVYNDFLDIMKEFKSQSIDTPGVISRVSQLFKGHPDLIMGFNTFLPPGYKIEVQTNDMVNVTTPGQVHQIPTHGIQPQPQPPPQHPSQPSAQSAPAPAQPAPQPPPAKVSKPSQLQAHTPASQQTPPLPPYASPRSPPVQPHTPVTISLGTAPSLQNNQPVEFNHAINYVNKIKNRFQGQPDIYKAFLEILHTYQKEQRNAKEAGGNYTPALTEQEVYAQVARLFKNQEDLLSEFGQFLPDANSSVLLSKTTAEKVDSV
# test_summary: gel-based ABPP, blockade of probe labeling of SIN3A
# experimental_context: read-out: apparent IC50, blockade of probe labeling of K155, lysates of HEK293T cells expressing Flag-SIN3A a.a. 1-400
experimental_endpoint: IC50 (µM)
Give just the numeric value; µM need not be written.

Look up IC50: O=C(Oc1c(F)c(F)c(F)c(F)c1F)c1cc(C(F)(F)F)cc(C(F)(F)F)c1
5
